Where these numbers come from: patent US20240246946A1

Measured IC50 by item
# target-or-system: full length human TREX1 (Homo sapiens, UniProt Q9NSU2)
# Construct: N-terminally His-Tev tagged full length human TREX1; made in house; host or cells: E. coli
# Sequence (Q9NSU2 whole entry): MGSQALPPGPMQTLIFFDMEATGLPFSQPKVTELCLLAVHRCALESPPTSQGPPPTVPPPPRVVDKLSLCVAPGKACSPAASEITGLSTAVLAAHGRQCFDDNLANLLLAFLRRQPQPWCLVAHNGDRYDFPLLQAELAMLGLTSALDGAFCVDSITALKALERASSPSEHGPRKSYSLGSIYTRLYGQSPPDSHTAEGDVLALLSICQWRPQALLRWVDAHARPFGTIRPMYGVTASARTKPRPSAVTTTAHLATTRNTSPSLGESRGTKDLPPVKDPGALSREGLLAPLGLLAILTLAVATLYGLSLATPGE
# test-name: hTREX1 Biochemical Assay (fluorescence, dsDNA substrate degradation)
# condition-description: biochemical, read-out: hTREX1 IC50

Take a look at these entries with their results.
COCCn1ncc(C(c2cc(F)ccc2Cl)C(C)c2nc(C(=O)Nc3cnoc3)c(O)c(=O)n2C)c1C (single isomer, unassigned) [Example 108 D2E1] :: 1 to 10 nM
CC(c1nc(C(=O)Nc2cnoc2)c(O)c(=O)n1C)C(c1ccccc1)c1cccnc1C#N (single isomer, unassigned) [Example 155 D2E2] :: > 10 nM
Cc1cc(C(c2cc(F)ccc2Cl)C(C)c2nc(C(=O)Nc3cnoc3)c(O)c(=O)n2C)n(C)n1 (single isomer, unassigned) [Example 113 D1E2] :: > 10 nM
Cc1cn(C)nc1C(c1ccccc1C#N)C(C)c1nc(C(=O)Nc2cnoc2)c(O)c(=O)n1C (single isomer, unassigned) [Example 64 D1E1] :: < 1 nM
COC(C)(C)Cn1cc(C(c2ccccc2C#N)C(C)c2nc(C(=O)Nc3cnoc3)c(O)c(=O)n2C)cn1 (single isomer, unassigned) [Example 37 D1E1] :: < 1 nM

IC50 measured on CC(c1nc(C(=O)Nc2cnoc2)c(O)c(=O)n1C)C(c1cnn(C(C)C)c1)c1ccccc1C#N (single isomer, unassigned) [Example 105 D1E2] = < 1 nM
